Experiment: yeast display, Sf9 membrane polyspecificity reagent, FACS + sequencing; frameworks hold sequencing errors
test readout: polyreactivity (PSR sort gate)

Below, 5 sequences whose answers are already recorded.
[
  {
    "construct sequence": "QVQLVESGGGLVQAGGSLRLSCAASGSTLDVYDMGWYRQAPGKEREFVATISFSVGSTDYADSVKGRFTISRDNAKNTVYLQMNSLKPEDTAVYYCAADVSEWSNQYFDSYLRMDYWGQGTQVTVSS",
    "test readout": "polyreactivity (PSR sort gate)",
    "result": "low polyreactivity"
  },
  {
    "construct sequence": "QVHLVESGGGLVQAGGSLRLSCAASGSIFGPNAMGWYRPAPGKERELVAAINGGTGTFYADSVKGRFTISRDNAKHTVYLQMNSLKPEDTAVYYCAADYGTHYFVRYYYWGQGTEVTVSS",
    "test readout": "polyreactivity (PSR sort gate)",
    "result": "high polyreactivity"
  },
  {
    "construct sequence": "QVQLVESGGGLVQAGGSLRLSCAASGSIFDRYVMGWYRQAPGKERELVAAITTSGDGTYYADSVKGRFTISRDNAKNTVYLQMNSLKPEDTAVYYCAAVRRSWKYSTSDYWGQGTQVTVSS",
    "test readout": "polyreactivity (PSR sort gate)",
    "result": "low polyreactivity"
  },
  {
    "construct sequence": "QVQLVESGGGLVQAGGSLRLSCAASGLTLYKNGMGWYRQAPGKERELVARITSGGRTYYADSVKGRFTISRDNAKNTVYLQMNSLKPEDTAVYYCNAVKSYASLCAGFYYWGQGTQVTVSS",
    "test readout": "polyreactivity (PSR sort gate)",
    "result": "high polyreactivity"
  },
  {
    "construct sequence": "QVQLVESGGGLVQAGGSLRLSSAASGRTSLAYAMGWYRQAPGKERELVAVITSGGNTNYADSVKGRFTISRDNAKNTVYLQMNSLKPEDTAVYYCNKKKRWQWYSESVLDYLGFYSWGQGTQVTVSS",
    "test readout": "polyreactivity (PSR sort gate)",
    "result": "low polyreactivity"
  }
]

Ask | If you can, please state the reported polyreactivity (PSR sort gate) value of QVQLVESGGGLVQAGGSLRLSCAASGRTFRYNTMGWYRQAPRKERELFAAISRGGRTYYADSVKGRFTISRDNAKNTVYLQMNSLKPEVTAVDYCAAPAAGDEYDYWGQGTQVTVSS .
Reply | high polyreactivity

Ask | Entry QVQLVESGGGLVQAGGSLRLSCAASGSTFWYYGMGWYRQAPGKERELVAAITRGGSTYYADSVKGRFTISRDNAKNTVYLQMNSLKPEDTAVYYCARAPSYSTGVSIRDYWGQGTQVTVSS : reported polyreactivity (PSR sort gate) = ?
Reply | high polyreactivity

Ask | // polyreactivity (PSR sort gate) lookup, key: QVQLVESGGRLVQAGGSLRLSCAASGRLFASNAMGWYLQAPGTEMELVAGNSRNGGSTFYADSVKGRFTISRDNAKNTVYLQMNSRKPEDSAVYYCARYYTHSGGYRDRIYYFWGQGTQVTVSS
Reply | low polyreactivity

Ask | Looking for the measured polyreactivity (PSR sort gate) of QVQLVESGGGLVQAGGSLRLSCAASGKTFDPNAMGWYIPAPGKEREFVAAIATIGSSTYYADSVKGRFTMSRDNAKNTVYLPMTCLKPEDSAVYYCAKGIYVVYGIDDYWGQGTQVTVSS , can you help?
Reply | low polyreactivity

Ask | Recorded polyreactivity (PSR sort gate) of PVQIVESGGGLVQAGGRLRLSCAASGSILVPYAMGWSRQAPGKERELVADISIRTGSTYYADSVKGRFTISRDNAKNTVYLQMYSLKPEETAVYYCNAAHRKPYTGLYYWGQGTQVTVSS , please.
Reply | high polyreactivity

Ask | So what's the measured polyreactivity (PSR sort gate) for this one? QVQLVESGGGLVQAGGSLRLSCAASGSTHNQNAMGWSRQAPGKETELVAAISSNGGTTYYADSVKWRFTISRDNAKNTVYLQMNSLKQEDTAVYYCAADWDRYVPRSYYRVSWYDYWGQGTQVTVSS
Reply | low polyreactivity

Origin of measurements: the nanobody polyreactivity screen of Harvey et al. (2022)
